# credit: patent US20200017592A1

test.system: T1, in-line fusion protein of human IL-36R extracellular domain and IL1RAcP extracellular domain expressed with … (human; mouse, UniProt Q9HB29 20-337; Q9NPH3 21-359, limits assumed)
T1 construct: not shown: mouse IgG2a Fc
T1 sequence (looked up): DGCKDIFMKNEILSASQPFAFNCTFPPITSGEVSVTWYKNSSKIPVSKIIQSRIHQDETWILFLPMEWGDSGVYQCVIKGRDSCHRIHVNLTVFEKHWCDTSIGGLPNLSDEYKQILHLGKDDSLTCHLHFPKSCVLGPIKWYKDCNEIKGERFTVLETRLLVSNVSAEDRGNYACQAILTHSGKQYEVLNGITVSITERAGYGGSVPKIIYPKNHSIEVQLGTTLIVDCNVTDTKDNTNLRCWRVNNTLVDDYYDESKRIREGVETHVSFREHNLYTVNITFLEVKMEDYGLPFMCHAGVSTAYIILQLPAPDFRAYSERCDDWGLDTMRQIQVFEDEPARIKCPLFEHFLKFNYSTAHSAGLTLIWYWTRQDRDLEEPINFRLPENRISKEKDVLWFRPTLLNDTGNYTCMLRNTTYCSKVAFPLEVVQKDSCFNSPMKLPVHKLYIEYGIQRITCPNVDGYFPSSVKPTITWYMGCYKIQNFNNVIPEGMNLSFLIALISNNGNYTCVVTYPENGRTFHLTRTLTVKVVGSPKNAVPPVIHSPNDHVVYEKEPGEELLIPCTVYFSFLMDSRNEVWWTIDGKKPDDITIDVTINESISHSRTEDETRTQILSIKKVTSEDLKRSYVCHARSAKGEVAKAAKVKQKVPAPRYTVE
measurement.notes: SPR Biacore 4000, mAb captured on anti-hFc, 37C
Reported Kd values for the following binders.
Write the value in nM as a bare number.

Which value of Kd has been reported for H4H14706P2 (antibody, human IgG4 S228P, kappa, V domains shown, Fully human anti-IL-36R antibody) VH: EVQLVESGGGLVQPGRSLRLSCTASGFTFDDYAIHWVRQSPGKGLEWVSVISWNSDVIGYADSVKGRFTISRDNAKNSLYLQMNSLRAEDTALYYCAKGYNWNFFDYWGQGTLVTVSS VL: EIVLTQSPATLSLSPGERATLSCRASQSVSSYLAWYQQKPGQAPRLLIYNAANRATDIPARFSGSGSGTDFTLTISSLEPEDFAVYYCQQRSNWPLTFGGGTKVEIKR in the records?
0.551

New cases:
Which value of Kd has been reported for H4H14758P (antibody, human IgG4 S228P, kappa, V domains shown, Fully human anti-IL-36R antibody) VH: EVQLVESGGGLVQPGRSLRLSCAASGFTFDDYAMHWVRQAPGKGLEWVSSVRWNGGIIGYADSVKGRFTISRDNAKNSLYLQMNSLRPEDTALYYCAKDIGDVLTGYYGEYGMDVWGQGTTVTVSS VL: DIQMTQSPSSLSASVGDRVTIACRASQSITTYLNWYQQKPGKAPKLLIYAASSLQSGVPSRFSGSGSGTDFTLTISSLQPEDFATYYCQQSYISPYTFGQGTKLEIKR in the records?
0.777
